- target system: T1, histidine-tagged human SIRPA v1 (Novoprotein) (human, UniProt P78324 31-370, limits assumed)
- T1 construct: bought, soluble; also called huSIRPA; soluble huSIRPA; not shown: histidine tag
- T1 sequence (P78324 31-370 limits assumed): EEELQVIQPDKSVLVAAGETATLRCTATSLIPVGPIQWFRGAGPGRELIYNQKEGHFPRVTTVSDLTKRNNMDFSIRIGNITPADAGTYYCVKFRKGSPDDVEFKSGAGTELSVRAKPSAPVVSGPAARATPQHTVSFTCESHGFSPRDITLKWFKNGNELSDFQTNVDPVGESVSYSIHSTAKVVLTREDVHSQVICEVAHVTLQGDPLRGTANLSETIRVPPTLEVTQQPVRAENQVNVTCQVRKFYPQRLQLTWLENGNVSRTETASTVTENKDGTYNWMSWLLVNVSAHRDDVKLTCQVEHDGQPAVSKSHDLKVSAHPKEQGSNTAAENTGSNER
- assay remarks: BLI (Octet), antibody on anti-human IgG Fc sensor, His-huSIRPA in solution, single-curve 1:1 fit
- Procedure: Initial characterization of affinity matured anti-SIRPA antibodies disclosed herein comprised acquiring antigen affinity measurements using bio-layer interferometry (BLI) on a Pall ForteBio Octet RED96 instrument. Immobilized anti-mouse IgG Fc or anti-human IgG Fc antibodies captured murine anti-SIRPA 3F79 antibody and humanized anti-SIRPA 3F79 antibody on biosensors, respectively. […] Affinity constants (KD) were calculated from the ratio kd/ka.
reported metric: koff
Give the number first and the unit second.

Fill in: koff of 3F9-15 (antibody, human IgG1, V domains shown, also called mAb 3F9-15) VH: EVQLLESGGGLVQPGGSLRLSCAASGFTFSSYAMSWVRQAPGKGLEWVATISEYGGSYTYYAESVKGRFTISRDNSKNTLYLQMNSLRAEDTAVYYCARPPYDDYYGGFRYWGQGTLVTVSS VL: DIQLTQSPSSLSASVGDRVTITCRASKSVSSGGYSYMHWYQQKPGKAPKLLIYLASNLESGVPSRFSGSGSGTDFTLTISSVQPEDFATYYCQHNRELPATFGQGTKLEIK is ___ 0.000362 s⁻¹

Fill in: koff of 3F9-5 (antibody, human IgG1, V domains shown, also called mAb 3F9-5) VH: EVQLLESGGGLVQPGGSLRLSCAASGFTFSSYAMSWVRQAPGKGLEWVATISEYGGSYTYYAESVKGRFTISRDNSKNTLYLQMNSLRAEDTAVYYCARPPYDDYYGGFAYWGQGTLVTVSS VL: DIQLTQSPSSLSASVGDRVTITCRASKSVSSGGYSYMHWYQQKPGKAPKLLIYLASNLESGVPSRFSGSGSGTDFTLTISSVQPEDFATYYCQHNRELPTTFGQGTKLEIK is ___ 0.000276 s⁻¹

Fill in: koff of 3F9-13 (antibody, human IgG1, V domains shown, also called mAb 3F9-13) VH: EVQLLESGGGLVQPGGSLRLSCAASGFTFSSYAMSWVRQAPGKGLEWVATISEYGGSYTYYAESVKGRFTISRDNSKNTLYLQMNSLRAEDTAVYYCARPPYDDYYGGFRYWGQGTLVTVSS VL: DIQLTQSPSSLSASVGDRVTITCRASKSVSSGGYSYMHWYQQKPGKAPKLLIYLASNLESGVPSRFSGSGSGTDFTLTISSVQPEDFATYYCQHNRELPTTFGQGTKLEIK is ___ 0.000201 s⁻¹

Fill in: koff of 3F9-23 (antibody, human IgG1, V domains shown, also called mAb 3F9-23) VH: EVQLLESGGGLVQPGGSLRLSCAASGFTFSSYAMSWVRQAPGKGLEWVATISEYGGSYTYYAESVKGRFTISRDNSKNTLYLQMNSLRAEDTAVYYCARPPYDDYYGGFQYWGQGTLVTVSS VL: DIQLTQSPSSLSASVGDRVTITCRASKSVSSGGYSYMHWYQQKPGKAPKLLIYLASNLESGVPSRFSGSGSGTDFTLTISSVQPEDFATYYCQHNRELPATFGQGTKLEIK is ___ 9.11e-05 s⁻¹

Fill in: koff of 3F9-20 (antibody, human IgG1, V domains shown, also called mAb 3F9-20) VH: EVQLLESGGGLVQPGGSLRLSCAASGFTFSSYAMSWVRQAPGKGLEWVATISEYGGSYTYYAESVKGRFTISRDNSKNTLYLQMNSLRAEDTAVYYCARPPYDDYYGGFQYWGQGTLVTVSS VL: DIQLTQSPSSLSASVGDRVTITCRASKSVSSGGYSYMHWYQQKPGKAPKLLIYLASNLESGVPSRFSGSGSGTDFTLTISSVQPEDFATYYCQHNRELPPTFGQGTKLEIK is ___ 0.000128 s⁻¹
